assay: logP determination by HPLC (reversed-phase C18), EEC Directive 79/831 Annex V.A8; conditions: reversed-phase C18 HPLC column
MEASURE NAME: chromatographic logP
// no unit string in output, number only

Prompt line: GET /values?readout=chromatographic logP&item= `CCOn1c(CC)nn(Cc2cc(Br)ccc2C(=O)C2C(=O)CCCC2=O)c1=O`
Response line: 2.68
